Every entry's value here was drawn from ChEMBL document CHEMBL5058577.

system: U2OS; test: Multiplex assay against U2OS; format: toxicity, cell-based; settings: human, 48 h, 10 µM, compound concentration 10 uM, replicate 1
measurement-type: Population Hoechst High Intensity Objects (%)

compound | measurement-target | obs-value
Oc1c(CN2CCN(c3ccccn3)CC2)cc(Cl)c2cccnc12 | U2OS | 2
COc1ccc2c(c1)C(C(=O)N(Cc1ccc(N(C)C)cc1)c1ccc(C(C)C)cc1)CCC2.Cl (centres undefined) | U2OS | 3
COc1cc(NC(=O)CCN2CCC(OC(=O)Nc3ccccc3-c3ccccc3)CC2)c(Cl)cc1CNC[C@H](O)c1ccc(O)c2[nH]c(=O)ccc12 [BATEFENTEROL] | U2OS | 6
O=C(NCC(=O)N1CC[C@H](N[C@H]2CC[C@@](O)(c3ccc(-c4ncccn4)cn3)CC2)C1)c1cccc(C(F)(F)F)c1 [PF-4136309] | U2OS | 4

====

system: U2OS; test: Multiplex assay against U2OS; type: toxicity, cell-based; conditions: human, 12 h, 10 µM, compound concentration 10 uM, replicate 2

compound | Total Cell Count
CCOc1c2c(c(OCC)c3ncccc13)CN(c1ccc(CS(=O)(=O)NC(=O)Cc3ccccc3OC)cc1C)C2=O | 136
N#Cc1c(N)nc(SCc2csc(-c3ccc(Cl)cc3)n2)c(C#N)c1-c1ccc(OCCO)cc1 | 102
Cc1ccc(-c2ccc(F)cc2COc2ccc(CCC(=O)O)cc2)cc1 | 123
O=S(=O)(c1ccccc1)c1cnc2c(N3CCNCC3)cccc2c1 [INTEPIRDINE] | 139
C[C@H]1[C@H]2CC[C@H]3[C@@H]4CC=C5C[C@@H](N(C)C)CC[C@]5(C)[C@H]4CC[C@]23CN1C | 107
CCCn1c(=O)c2[nH]c(C3CCCC3)nc2n(CCC)c1=O | 96
N[C@@]1(C(=O)O)CO[C@H]2[C@H](C(=O)O)[C@H]21 | 143
CN(C)CCCc1cc(C(=O)Nc2ccc(-c3ccncc3)cc2)ccc1O.Cl.Cl | 113
O=C(O)c1cc2ccccc2c(Cc2c(O)c(C(=O)O)cc3ccccc23)c1O | 140
O=C1COc2nccc(-c3ccccc3F)c2CN1Cc1cc(C(F)(F)F)cc(C(F)(F)F)c1 | 112
COc1cc(NC(=O)CCN2CCC(OC(=O)Nc3ccccc3-c3ccccc3)CC2)c(Cl)cc1CNC[C@H](O)c1ccc(O)c2[nH]c(=O)ccc12 | 82
C[C@H](NC(=O)c1c(C(F)F)nn(C)c1Oc1cccc(C(F)(F)F)c1)c1ccc(C(=O)O)cc1 | 117
Cl.Clc1ccc2nsnc2c1NC1=NCCN1 [TIZANIDINE HYDROCHLORIDE] | 98
CSCC[C@H](NC=O)C(=O)N[C@@H](CC(C)C)C(=O)N[C@@H](Cc1ccccc1)C(=O)O | 123
O=C(NCC(=O)N1CC[C@H](N[C@H]2CC[C@@](O)(c3ccc(-c4ncccn4)cn3)CC2)C1)c1cccc(C(F)(F)F)c1 | 90
O=C(NCCO)c1cccc(-c2cc(Nc3ccc(OC(F)(F)F)cc3)ncn2)c1 | 77
Cc1ccccc1C(=O)Nc1ccc(C(=O)N2CCCC(N(C)C)c3ccccc32)cc1.Cl (configuration not stated) | 83

====

tested on: Fibroblast; assay: Multiplex assay against human fibroblast; type: toxicity, cell-based; conditions: 24 h, 1 µM, compound concentration 1 uM, replicate 1

compound | Population Mitotic Cells (%)
CC1(COc2ccc3c(c2)ncn3-c2ccc3cccc(N4CCC(N)CC4)c3n2)COC1 | 7
CN(C)CCCc1cc(C(=O)Nc2ccc(-c3ccncc3)cc2)ccc1O.Cl.Cl | 70
N[C@@]1(C(=O)O)CO[C@H]2[C@H](C(=O)O)[C@H]21 | 63
O=S(=O)(c1ccccc1)c1cnc2c(N3CCNCC3)cccc2c1 [INTEPIRDINE] | 45
CCCN1CCC[C@@H]2Cc3n[nH]cc3C[C@H]21.Cl [QUINPIROLE HYDROCHLORIDE] | 47
